System: 695427-040-R-J1-PDC complex spheroid viability;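 further: spheroids exposed to compounds for seven days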
Experiment: Anticancer human tumor 695427-040-R-J1-PDC patient-derived colon adenocarcinoma cell line growth inhibition [POLQ]
Settings: curve of first compound; second compound 0.0316 µM
Protocol: Multicellular complex tumor spheroid response to Polymerase (POL) inhibitors (novobiocin, ART-558, RP6685) in combination with a variety of drugs and investigational agents in selected tumor cell lines The POL inhibitors (novobiocin, ART-558, and RP6685) were evaluated both individually and in combination with standard of care and investigational anticancer small molecules within a complex spheroid model of solid tumors. . […]
measuredAttribute: IC50

[
  {
    "compound": "CCc1cc2c(N3CCc4c(cc(Cn5ccnc5)cc4-c4cn(C)nc4C(F)(F)F)C3=O)ccnc2c(OC)n1 + Cc1cccc(N(C)C(=O)C2C(O)CCN2c2nc(C)cc(C(F)(F)F)c2C#N)c1",
    "assayTarget": "695427-040-R-J1-PDC complex spheroid viability",
    "IC50": "> 10 µM"
  },
  {
    "compound": "CC(=O)O[C@H]1C(=O)[C@@]2(C)[C@H]([C@H](OC(=O)c3ccccc3)[C@]3(O)C[C@H](OC(=O)[C@H](O)[C@@H](NC(=O)c4ccccc4)c4ccccc4)C(C)=C1C3(C)C)[C@]1(OC(C)=O)CO[C@@H]1C[C@@H]2O + Cc1cccc(N(C)C(=O)C2C(O)CCN2c2nc(C)cc(C(F)(F)F)c2C#N)c1",
    "assayTarget": "695427-040-R-J1-PDC complex spheroid viability",
    "IC50": "> 3 µM"
  },
  {
    "compound": "CCc1c2c(nc3ccc(O)cc13)-c1cc3c(c(=O)n1C2)COC(=O)[C@]3(O)CC + Nc1ccc(C#CCN(C(=O)Cc2ncc(C(F)(F)F)cc2C(F)(F)F)c2ccc(F)cc2)nn1",
    "assayTarget": "695427-040-R-J1-PDC complex spheroid viability",
    "IC50": "> 1 µM"
  },
  {
    "compound": "COc1cc(C2c3cc4c(cc3C(OC3OC5COC(C)OC5C(O)C3O)C3COC(=O)C23)OCO4)cc(OC)c1O (centres undefined) + COC1C(OC(N)=O)C(O)C(Oc2ccc3c(O)c(NC(=O)c4ccc(O)c(CC=C(C)C)c4)c(=O)oc3c2C)OC1(C)C",
    "assayTarget": "695427-040-R-J1-PDC complex spheroid viability",
    "IC50": "> 10 µM"
  },
  {
    "compound": "CCCS(=O)(=O)Nc1ccc(F)c(C(=O)c2c[nH]c3ncc(-c4ccc(Cl)cc4)cc23)c1F + COC1C(OC(N)=O)C(O)C(Oc2ccc3c(O)c(NC(=O)c4ccc(O)c(CC=C(C)C)c4)c(=O)oc3c2C)OC1(C)C",
    "assayTarget": "695427-040-R-J1-PDC complex spheroid viability",
    "IC50": "> 10 µM"
  }
]

Let me check: CCc1cc2c(N3CCc4c(cc(Cn5ccnc5)cc4-c4cn(C)nc4C(F)(F)F)C3=O)ccnc2c(OC)n1 + COC1C(OC(N)=O)C(O)C(Oc2ccc3c(O)c(NC(=O)c4ccc(O)c(CC=C(C)C)c4)c(=O)oc3c2C)OC1(C)C , system 695427-040-R-J1-PDC complex spheroid viability, measured IC50 is > 10 µM

Let me check: CC(C)n1c(=O)n(C)c2cnc3cc(F)c(-c4ccc(OCCCN5CCCCC5)nc4)cc3c21 + Cc1cccc(N(C)C(=O)C2C(O)CCN2c2nc(C)cc(C(F)(F)F)c2C#N)c1 , system 695427-040-R-J1-PDC complex spheroid viability, measured IC50 is > 10 µM

Let me check: Nc1ccn(C2OC(CO)C(O)C2(F)F)c(=O)n1 (centres undefined) + COC1C(OC(N)=O)C(O)C(Oc2ccc3c(O)c(NC(=O)c4ccc(O)c(CC=C(C)C)c4)c(=O)oc3c2C)OC1(C)C , system 695427-040-R-J1-PDC complex spheroid viability, measured IC50 is > 10 µM

Let me check: Nc1ccn(C2OC(CO)C(O)C2(F)F)c(=O)n1 (centres undefined) + Cc1cccc(N(C)C(=O)C2C(O)CCN2c2nc(C)cc(C(F)(F)F)c2C#N)c1 , system 695427-040-R-J1-PDC complex spheroid viability, measured IC50 is > 10 µM

Let me check: CC1COCCN1c1cc(-c2ccnn2C)c2ccnc(-c3ccn[nH]3)c2n1 (centres undefined) + Nc1ccc(C#CCN(C(=O)Cc2ncc(C(F)(F)F)cc2C(F)(F)F)c2ccc(F)cc2)nn1 , system 695427-040-R-J1-PDC complex spheroid viability, measured IC50 is > 10 µM

Let me check: C#Cc1c(F)ccc2cc(O)cc(-c3ncc4c(N5CC6CCC(C5)N6)nc(OCC56CCCN5CC(F)C6)nc4c3F)c12 (centres undefined) + COC1C(OC(N)=O)C(O)C(Oc2ccc3c(O)c(NC(=O)c4ccc(O)c(CC=C(C)C)c4)c(=O)oc3c2C)OC1(C)C , system 695427-040-R-J1-PDC complex spheroid viability, measured IC50 is > 10 µM

Let me check: CC[C@@]1(O)C(=O)OCc2c1cc1n(c2=O)Cc2cc3c(CN(C)C)c(O)ccc3nc2-1 + Nc1ccc(C#CCN(C(=O)Cc2ncc(C(F)(F)F)cc2C(F)(F)F)c2ccc(F)cc2)nn1 , system 695427-040-R-J1-PDC complex spheroid viability, measured IC50 is > 0.1 µM

Let me check: CC[C@@]1(O)C(=O)OCc2c1cc1n(c2=O)Cc2cc3c(CN(C)C)c(O)ccc3nc2-1 + COC1C(OC(N)=O)C(O)C(Oc2ccc3c(O)c(NC(=O)c4ccc(O)c(CC=C(C)C)c4)c(=O)oc3c2C)OC1(C)C , system 695427-040-R-J1-PDC complex spheroid viability, measured IC50 is > 0.1 µM

Let me check: COc1cccc(OCCCN)c1-c1cc(Nc2cnc(C#N)cn2)n[nH]1 + Nc1ccc(C#CCN(C(=O)Cc2ncc(C(F)(F)F)cc2C(F)(F)F)c2ccc(F)cc2)nn1 , system 695427-040-R-J1-PDC complex spheroid viability, measured IC50 is > 1 µM
